tested on: U266 cells; assay: MTS cell viability assay, U266 cells; type: cell-based; settings: Homo sapiens, U-266, 72 hours incubation
recorded_metric: pIC50
Units for pIC50: none; it is -log10 of a concentration expressed in mol/L.

Please look up its pIC50: O=C(NO)c1ccc(Cn2sc3ccccc3c2=O)cc1
4.84

###

tested on: KMS-11 cells; assay: MTS cell viability assay, KMS-11 cells; type: cell-based; conditions: Homo sapiens, 72 hours incubation
recorded_metric: pIC50
Scale note: pIC50 = -log10(concentration in M).

Fill in the blank: the reported pIC50 of O=C(NO)c1ccc(Cn2sc3ccccc3c2=O)cc1 [RBC-2008] is ____.
5.60
